Data origin, for the record: BindingDB's records for doi:10.1021/jm980200+

Parameter IC50: see the listing below.
assay: Inhibitory activity against yeast aldehyde dehydrogenase (AIDH)
parameter: IC50

• CCOC(=O)ON(c1ccccc1)S(=O)(=O)c1ccccc1 = 64.3 µM
• COC(=O)ON(c1ccccc1)S(=O)(=O)c1ccccc1 = 38.3 µM
• CCOC(=O)ON(C(=O)OCC)S(C)(=O)=O = 35.6 µM
• CC(=O)ON(C(C)=O)S(C)(=O)=O [N-Acetoxy-N-acetyl-methanesulfonamide] = 1000 µM
• COC(=O)ON(C(=O)OC)S(C)(=O)=O = 20.9 µM
• CC(=O)ON(c1ccccc1)S(=O)(=O)c1ccccc1 [N-Acetoxy-N-phenyl-benzenesulfonamide] = 36 µM
• O=Nc1ccccc1 = 2.5 µM
• CON(c1ccccc1)S(=O)(=O)c1ccccc1 [N-Methoxy-N-phenyl-benzenesulfonamide] = > 1000 µM
